System: Human immunodeficiency virus
test_details: Inhibition of HIV reverse transcriptase assessed as incorporation of [3H]dTMP at 10 uM
observed_property: inhibition (%)

{"compound_string": "O=C(O[C@@H]1C[C@](OC(=O)c2cc(O)c(O)c(O)c2)(C(=O)O)C[C@@H](OC(=O)c2cc(O)c(O)c(O)c2)[C@H]1OC(=O)c1cc(O)c(O)c(O)c1)c1cc(O)c(O)c(O)c1", "observed_property": "inhibition", "value_unit": "%", "numeric_value": 36}
{"compound_string": "O=C(Oc1c(O)cc(C(=O)O[C@@H]2C[C@](O)(C(=O)O)C[C@@H](OC(=O)c3cc(O)c(O)c(O)c3)[C@H]2OC(=O)c2cc(O)c(O)c(O)c2)cc1O)c1cc(O)c(O)c(O)c1", "observed_property": "inhibition", "value_unit": "%", "numeric_value": 50}
{"compound_string": "O=C(Oc1c(O)cc(C(=O)O[C@@H]2C[C@@](O)(C(=O)O)C[C@@H](OC(=O)c3cc(O)c(O)c(O)c3)[C@@H]2OC(=O)c2cc(O)c(O)c(O)c2)cc1O)c1cc(O)c(O)c(O)c1", "observed_property": "inhibition", "value_unit": "%", "numeric_value": 55}
{"compound_string": "O=C(Oc1c(O)cc(C(=O)O[C@H]2[C@H](OC(=O)c3cc(O)c(O)c(O)c3)C[C@](O)(C(=O)O)C[C@H]2OC(=O)c2cc(O)c(O)c(O)c2)cc1O)c1cc(O)c(O)c(O)c1", "observed_property": "inhibition", "value_unit": "%", "numeric_value": 53}
{"compound_string": "O=C(O[C@@H]1C[C@](O)(C(=O)O)C[C@@H](OC(=O)c2cc(O)c(O)c(O)c2)[C@H]1OC(=O)c1cc(O)c(O)c(O)c1)c1cc(O)c(O)c(O)c1", "observed_property": "inhibition", "value_unit": "%", "numeric_value": 39}
